Cited source for all entries: paper PMC12040169

Procedure Summary: in vitro
Experimental Context: human, hela cells, % viability
Reported Metric: viability at 28.5 h, 10 µM (%)

[[record]]
compound = "COc1ccc(S(=O)(=O)NC[C@H]2C[C@@H]3CC[N@]2C[C@@H]3CN2CCCCC2)cc1"
reported_metric = "viability at 28.5 h, 10 µM"
assay_result = 98.9

[[record]]
compound = "Cc1cc(C)n(C(C(=O)NCCOc2ccc(F)cc2)C(C)C)n1 (stereo not drawn)"
reported_metric = "viability at 28.5 h, 10 µM"
assay_result = 81.4

[[record]]
compound = "CC1CCN(Cc2c(O)ccc3c(=O)c(-c4cccc(Cl)c4)c(C(F)(F)F)oc23)CC1"
reported_metric = "viability at 28.5 h, 10 µM"
assay_result = 103

[[record]]
compound = "COc1cc(OC)c(NC(=O)N2CCC(n3c(=O)[nH]c4ccccc43)CC2)cc1Cl"
reported_metric = "viability at 28.5 h, 10 µM"
assay_result = 91.4

[[record]]
compound = "Cc1ccn(-c2ccc(N3CCC(OC4CCOCC4)CC3)nn2)n1"
reported_metric = "viability at 28.5 h, 10 µM"
assay_result = 87

[[record]]
compound = "Cc1cc2cc(CCNC(=O)C(=O)c3c[nH]c4ccccc34)c(O)nc2cc1C"
reported_metric = "viability at 28.5 h, 10 µM"
assay_result = 89.5

[[record]]
compound = "Cc1ccc(S(=O)(=O)NC[C@H]2CC[C@H](C(=O)O)CC2)cc1"
reported_metric = "viability at 28.5 h, 10 µM"
assay_result = 96.1

[[record]]
compound = "Cc1cnc(CNC(=O)N(CCC#N)C2CCCCC2)cn1"
reported_metric = "viability at 28.5 h, 10 µM"
assay_result = 96.5

[[record]]
compound = "O=C(Cn1ccc(=O)[nH]c1=O)NCc1cccnc1OC1CCCC1"
reported_metric = "viability at 28.5 h, 10 µM"
assay_result = 94.9


====

Reported viability at 28.5 h, 10 µM values follow for various compounds
Procedure Summary: in vitro
Experimental Context: human, hela cells, % viability
Reported Metric: viability at 28.5 h, 10 µM (%)

[[record]]
compound = "CCCc1n[nH]c(=S)n1CC(=O)NCc1ccc(N2CC(C)OC(C)C2)nc1 (centres unmarked) [CBK297741]"
assay_result = 90.4

[[record]]
compound = "Cc1cnc2c(Cl)c(C(=O)N3CCC4(CCCNC4)C3)nn2c1 (centres unmarked) [CBK307472]"
assay_result = 116

[[record]]
compound = "O=C(O)CSc1n[nH]c(=O)[nH]c1=O [CBK217819]"
assay_result = 94.8

[[record]]
compound = "O=C(Nc1nc(-c2ccncc2)cs1)c1sc2ccccc2c1Cl [CBK287562]"
assay_result = 92.1

[[record]]
compound = "COc1cc(C(C)=O)ccc1OCCCN1CCC(O)(C(=O)c2ccc(Cl)c(Cl)c2)CC1 [CBK024875C]"
assay_result = 97.6


====

Procedure Summary: in vitro
Experimental Context: human, hela cells, % viability
Reported Metric: viability at 28.5 h, 10 µM (%)

[[record]]
compound = "CC(C)NC(=O)c1cc(C2CN(Cc3ccc4ncccc4c3)CCO2)nc2ccccc12 (stereo not shown) [CBK285895]"
reported_metric = "viability at 28.5 h, 10 µM"
display_unit = "%"
assay_result = 92.9

[[record]]
compound = "COc1ccc(Nc2cc(-c3ccco3)ncn2)c(OC)c1 [CBK090761]"
reported_metric = "viability at 28.5 h, 10 µM"
display_unit = "%"
assay_result = 105

[[record]]
compound = "O=S(=O)(Nc1nnc(C(F)(F)F)s1)c1ccc(Br)cc1C(F)(F)F [CBK062013]"
reported_metric = "viability at 28.5 h, 10 µM"
display_unit = "%"
assay_result = 96.7

[[record]]
compound = "CN(CCN1CCCCC1=O)c1nccc(CCC(F)(F)F)n1 [CBK307218]"
reported_metric = "viability at 28.5 h, 10 µM"
display_unit = "%"
assay_result = 106

[[record]]
compound = "COCc1c(Br)c(C)nc(OCC(=O)O)c1C#N [CBK266532]"
reported_metric = "viability at 28.5 h, 10 µM"
display_unit = "%"
assay_result = 96.9

[[record]]
compound = "COCCN(Cc1ccc(OC)cc1)c1c(C)nc2ccc(C(=O)Nc3ccc(NC(C)=O)cc3)cn12 [CBK146111]"
reported_metric = "viability at 28.5 h, 10 µM"
display_unit = "%"
assay_result = 99.3

[[record]]
compound = "FC(F)(F)c1ccnc(SCCc2ccccn2)c1 [CBK103709]"
reported_metric = "viability at 28.5 h, 10 µM"
display_unit = "%"
assay_result = 105

[[record]]
compound = "Cc1cccc(NCC2CCN(CC(=O)Nc3cc(C)on3)C2)n1 (stereo not shown) [CBK306118]"
reported_metric = "viability at 28.5 h, 10 µM"
display_unit = "%"
assay_result = 90.4

[[record]]
compound = "Cc1cc(S(=O)(=O)Nc2n[nH]cc2C#N)c(C)cc1Cl [CBK044943]"
reported_metric = "viability at 28.5 h, 10 µM"
display_unit = "%"
assay_result = 91.9

[[record]]
compound = "C/C(=N\\NC(=O)c1nc(-c2ccccc2)cc(-c2ccccc2)n1)c1cccnc1 [CBK262827]"
reported_metric = "viability at 28.5 h, 10 µM"
display_unit = "%"
assay_result = 90.2

[[record]]
compound = "O=C(O)c1cccc(NC(=O)c2cnc(-c3cccc(C(F)(F)F)c3)c(-c3cccc(CO)c3)c2)c1 [CBK037565]"
reported_metric = "viability at 28.5 h, 10 µM"
display_unit = "%"
assay_result = 96

[[record]]
compound = "O=C1Cc2cc3ccccc3cc2C2(CCN(CCC(F)=C(F)F)CC2)N1 [CBK040033]"
reported_metric = "viability at 28.5 h, 10 µM"
display_unit = "%"
assay_result = 94.6

[[record]]
compound = "CCCOc1ccc(C(C)=O)cc1CC(C(N)=O)C(N)=O [CBK263309]"
reported_metric = "viability at 28.5 h, 10 µM"
display_unit = "%"
assay_result = 90.6

[[record]]
compound = "CCC(C)C(NC(=O)C1CCN(S(=O)(=O)c2ccc(OC)c(OC)c2)CC1)C(=O)O (stereo not shown) [CBK297140]"
reported_metric = "viability at 28.5 h, 10 µM"
display_unit = "%"
assay_result = 90.7

[[record]]
compound = "CC1CCCCN1CC(=O)N(C)C(C)COc1ccc(Cl)cc1 (stereo not shown) [CBK023201]"
reported_metric = "viability at 28.5 h, 10 µM"
display_unit = "%"
assay_result = 87.8

[[record]]
compound = "O=C(NC[C@H]1CC[C@H](C(=O)O)CC1)c1cc2ccccc2[nH]1 [CBK287069]"
reported_metric = "viability at 28.5 h, 10 µM"
display_unit = "%"
assay_result = 105

[[record]]
compound = "Oc1ccc(/C=N/n2c(S)nnc2C(F)(F)F)cc1 [CBK265206]"
reported_metric = "viability at 28.5 h, 10 µM"
display_unit = "%"
assay_result = 98.6

[[record]]
compound = "CC(C)(CNC(=O)c1ccc(=O)n(CC(=O)N2CCc3ccccc32)c1)c1ccccc1F [CBK286020]"
reported_metric = "viability at 28.5 h, 10 µM"
display_unit = "%"
assay_result = 127

[[record]]
compound = "COc1ccc(-c2cc(=O)[nH]c(SCC(=O)Nc3ccc(C)cc3)n2)cc1 [CBK091867]"
reported_metric = "viability at 28.5 h, 10 µM"
display_unit = "%"
assay_result = 95.8

